# test name: Brain concentration in rat at 1 mg/kg, iv at 2 hrs
# Assay type: ADME, organism-based
# Design: dose 1 mg/kg, route intravenous
# measurement context: read-out: Activity

smiles notation	concentration at 2 h (nM)
C[C@H](NS(=O)(=O)c1cccc(-c2ccccc2)c1)[C@@H](Cc1ccc(Cl)cc1)c1cccc(C#N)c1	54

* * *

Listing of recorded pIC50 by entry.
# system name: Cannabinoid receptor 1 (Homo sapiens, UniProt P21554)
# Sequence (P21554 whole entry): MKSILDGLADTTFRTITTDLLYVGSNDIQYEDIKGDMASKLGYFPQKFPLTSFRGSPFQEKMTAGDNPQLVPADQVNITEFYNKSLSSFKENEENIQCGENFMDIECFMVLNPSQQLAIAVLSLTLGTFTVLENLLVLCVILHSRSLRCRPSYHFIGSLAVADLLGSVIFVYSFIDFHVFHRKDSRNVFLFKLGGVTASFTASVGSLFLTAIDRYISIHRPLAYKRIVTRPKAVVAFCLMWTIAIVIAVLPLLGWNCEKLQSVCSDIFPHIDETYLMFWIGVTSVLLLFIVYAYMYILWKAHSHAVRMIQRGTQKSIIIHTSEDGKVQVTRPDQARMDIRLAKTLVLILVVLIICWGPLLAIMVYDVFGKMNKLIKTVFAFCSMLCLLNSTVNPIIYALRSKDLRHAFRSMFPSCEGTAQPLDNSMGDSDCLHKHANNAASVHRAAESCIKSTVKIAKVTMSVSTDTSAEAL
# test name: biochemical
# Description: Displacement of [3H]CP-55940 from human recombinant CB1 receptor expressed in CHO cells
pIC50: −log10 of the molar value.
readout kind: pIC50

smiles notation	system name	readout kind	censoring qualifier	result value
C[C@H](NS(C)(=O)=O)[C@@H](Cc1ccc(Cl)cc1)c1cccc(C#N)c1	Cannabinoid receptor 1 (Homo sapiens, UniProt P21554)	pIC50	<	5.70
C[C@H](NS(=O)(=O)Cc1ccc(Cl)cc1)[C@@H](Cc1ccc(Cl)cc1)c1cccc(C#N)c1	Cannabinoid receptor 1 (Homo sapiens, UniProt P21554)	pIC50	=	7.81
C[C@H](NS(=O)(=O)c1cc(C(F)(F)F)cc(C(F)(F)F)c1)[C@@H](Cc1ccc(Cl)cc1)c1cccc(C#N)c1	Cannabinoid receptor 1 (Homo sapiens, UniProt P21554)	pIC50	=	8.49
C[C@H](NS(=O)(=O)c1cccc(-c2ccccc2)c1)[C@@H](Cc1ccc(Cl)cc1)c1cccc(C#N)c1	Cannabinoid receptor 1 (Homo sapiens, UniProt P21554)	pIC50	=	8.55
